molecular target: UFC1; test: reporter assay of Huesken 2005; conditions: siRNA; further: test concentration or dose not given here
Oligonucleotides are written 5' to 3', each unit as a sugar letter and its base; * is a phosphorothioate linkage, no mark a phosphodiester; rarer units and linkages stand in square brackets, end groups in braces. Plain capitals give the bases only. d = 2'-deoxy (DNA); r = 2'-OH (RNA)
outcome-measure: normalised inhibition (eCFP-eYFP dual reporter)
Field note: include the unit after the figure.

Before answering, review these 5 worked examples.
substance="sense rArUrCrArCrArUrArUrCrCrUrArCrUrArCrUrGdTdT / antisense rCrArGrUrArGrUrArGrGrArUrArUrGrUrGrArUdAdG" value_observed=69.2%
substance="sense rArGrGrArArGrGrArArCrUrCrGrGrUrGrGrUrUdTdT / antisense rArArCrCrArCrCrGrArGrUrUrCrCrUrUrCrCrUdTdG" value_observed=61.8%
substance="sense rGrCrUrGrArCrArArCrGrArUrUrGrGrUrUrCrCdTdT / antisense rGrGrArArCrCrArArUrCrGrUrUrGrUrCrArGrCdAdT" value_observed=78%
substance="sense rCrUrGrArUrCrUrGrArUrUrCrArGrArArGrGrGdTdT / antisense rCrCrCrUrUrCrUrGrArArUrCrArGrArUrCrArGdGdG" value_observed=73.2%
substance="sense rArArCrArArGrArArUrGrCrUrGrArCrArArCrGdTdT / antisense rCrGrUrUrGrUrCrArGrCrArUrUrCrUrUrGrUrUdGdT" value_observed=43.3%

# lookup: normalised inhibition (eCFP-eYFP dual reporter) of sense rArUrArUrCrCrUrArCrUrArCrUrGrCrCrCrCrAdTdT / antisense rUrGrGrGrGrCrArGrUrArGrUrArGrGrArUrArUdGdT
78.2%

Give its normalised inhibition (eCFP-eYFP dual reporter) value. Item: sense rGrArUrCrArUrUrUrCrArArArCrCrUrUrUrGrUdTdT / antisense rArCrArArArGrGrUrUrUrGrArArArUrGrArUrCdCdG
98.8%

Find the recorded normalised inhibition (eCFP-eYFP dual reporter) belonging to sense rCrUrUrArUrCrCrGrGrUrArUrGrUrGrGrArGrAdTdT / antisense rUrCrUrCrCrArCrArUrArCrCrGrGrArUrArArGdGdG and report it.
78.4%

Entry under review: sense rCrUrGrGrArGrUrCrCrArArCrArArGrGrArArGdTdT / antisense rCrUrUrCrCrUrUrGrUrUrGrGrArCrUrCrCrArGdTdC . Reported normalised inhibition (eCFP-eYFP dual reporter)?
66.3%

###

normalised inhibition (eCFP-eYFP dual reporter): recorded values
molecular target: MRFAP1; experiment: reporter assay of Huesken 2005; details: siRNA
Oligonucleotides are written 5' to 3', each unit as a sugar letter and its base; * is a phosphorothioate linkage, no mark a phosphodiester; rarer units and linkages stand in square brackets, end groups in braces. Plain capitals give the bases only. d = 2'-deoxy (DNA); r = 2'-OH (RNA)
Return type: number; implicit unit %.

Examples with their reported normalised inhibition (eCFP-eYFP dual reporter) follow.
substance="sense rArCrCrUrGrArUrArGrCrUrCrCrCrUrGrArArCdTdT / antisense rGrUrUrCrArGrGrGrArGrCrUrArUrCrArGrGrUdCdA" unit_tag=% value_observed=68.5
substance="sense rCrUrGrCrUrGrCrCrCrGrUrCrArUrCrCrArCrGdTdT / antisense rCrGrUrGrGrArUrGrArCrGrGrGrCrArGrCrArGdAdA" unit_tag=% value_observed=39.5
substance="sense rCrArGrGrArGrArUrGrGrCrGrArArGrArUrGrGdTdT / antisense rCrCrArUrCrUrUrCrGrCrCrArUrCrUrCrCrUrGdCdG" unit_tag=% value_observed=81.9
substance="sense rCrCrUrGrCrArArUrGrGrArCrCrCrArArArArCdTdT / antisense rGrUrUrUrUrGrGrGrUrCrCrArUrUrGrCrArGrGdTdT" unit_tag=% value_observed=86.2
substance="sense rUrUrUrGrGrArArArArUrGrCrGrCrUrCrArCrAdTdT / antisense rUrGrUrGrArGrCrGrCrArUrUrUrUrCrCrArArAdTdC" unit_tag=% value_observed=47.6

# query: normalised inhibition (eCFP-eYFP dual reporter) of entry sense rArCrGrArCrCrUrCrGrArUrArUrGrArGrUrUrUdTdT / antisense rArArArCrUrCrArUrArUrCrGrArGrGrUrCrGrUdCdA
70

Field request: normalised inhibition (eCFP-eYFP dual reporter) | item: sense rUrGrGrArGrGrUrGrCrUrGrGrArGrCrCrGrGrAdTdT / antisense rUrCrCrGrGrCrUrCrCrArGrCrArCrCrUrCrCrAdCdC
69.1

Sample sense rArCrUrArUrCrUrArUrUrArUrArArCrCrUrGrCdTdT / antisense rGrCrArGrGrUrUrArUrArArUrArGrArUrArGrUdGdT — what was its normalised inhibition (eCFP-eYFP dual reporter)?
42.2

Need normalised inhibition (eCFP-eYFP dual reporter), item sense rGrArGrArArGrGrArArArArCrCrUrGrCrArArUdTdT / antisense rArUrUrGrCrArGrGrUrUrUrUrCrCrUrUrCrUrCdAdG
79.1

Every entry's value here was drawn from the OligoGym collection.
